Target Of Assay: T1, human recombinant FGF-2 (human, UniProt P09038 143-288)
T1 construct: basic fibroblast growth factor (FGF-2), human recombinant; also called basic fibroblast growth factor; source: bought: R&D Systems
T1 sequence (P09038 143-288): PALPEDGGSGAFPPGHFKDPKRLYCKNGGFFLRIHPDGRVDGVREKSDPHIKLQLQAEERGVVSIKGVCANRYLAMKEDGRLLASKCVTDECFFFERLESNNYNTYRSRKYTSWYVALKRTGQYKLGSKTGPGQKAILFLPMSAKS
Procedure Summary: grating-coupled interferometry; Creoptix WAVEdelta, 4PCP-STA chip; biotinylated CXCL9(74-103) captured on streptavidin; FGF-2 as analyte 4.53 nM-1.10 µM in duplicate; 25 °C; PBS with 30 mM NaCl, 15 mM L-arginine, 0.015% Tween 20, 0.05 mg/mL BSA, pH 7.4; 1:1 binding model with bulk correction
Experimental Setup: both partners purified
Where no end group is shown, it is not given here. The star is where a group is joined. Biotin = O=C1N[C@H]2[C@H](CS[C@H]2CCCCC(=O)*)N1
Property Measured: Kd
Write the quantity with the unit trailing the number.

State its Kd for this binder: Biotin-KKKQKNGKKHQKKKVLKVRKSQRSRQKKTT (Site-specifically biotinylated at the NH2-terminus with biotin-p-nitrophenyl ester; source: synthetic peptide (Fmoc solid-phase synthesis)) [biotinylated CXCL9(74-103)]
100 nM
